Protocol description: Drug uptake in Sprague-Dawley rat kidney at 20 mg/kg, ip measured after 6 hrs by LC-MS/MS analysis
Type: ADME, organism-based
Test context: read-out: Drug uptake
Listed next: entries and their corresponding concentration at 6 h.
Report as a plain number; the unit nM is understood.

{"Molecule": "CC(C)Cc1nn(C)c(=O)c2c(SCCCO)n(Cc3cccc4ccccc34)cc12", "Unit string": "nM", "concentration at 6 h": 120}

From here, focus on the item given below.
Exercise: Look up concentration at 6 h of "CC(C)Cc1nn(C)c(=O)c2c(SCCCO)n(Cc3ccc(C#CCCCOc4ccc(C[C@H](N)C(=O)O)cc4)c4ccccc34)cc12" and report it.
Key: 1620
